# Assay target: Hexose transporter 1 (Plasmodium falciparum) (UniProt O97467)
# Test method notes: ST_JUDE_LEISH: Cytotoxicity at 2uM final concentration against transgenic Leishmania Mexicana promastigotes LmPfHT that are glucose transport deficient and complemented with the Plasmodium falciparum hexose transporter. Activity is measured by DNA content using SYBR green in vitro
# Assay type: functional
Would you kindly list inhibition for each of these molecules?
One number for each entry, in %.

Cc1c(CN2CCC(N3CCC(C(=O)NC4CC4)CC3)CC2)[nH]c2c(Cl)cccc12	11.6

Please report inhibition for every entry that follows.
1. CC1(CCc2ccccc2)N=C(N)N=C(N)C1c1ccc(Cl)c(Cl)c1 (centres undefined)
2. CCCCSc1c(CNCCCCCCNCc2ccc3ccccc3c2SCCCC)ccc2ccccc12
3. O=C(Nc1cccc(-c2nn3ccccc3c2-c2ccnc(Nc3cccc(F)c3)n2)c1)c1c(F)ccc(F)c1Cl

1: 9.47; 2: 5.83; 3: 10.4

Please report inhibition for every entry that follows.
1. COc1ccccc1C1CCN(C2CCC(NC(=O)/C=C/c3cc(F)cc(F)c3)CC2)CC1 (centres undefined)
2. COc1cccc(Nc2nccc(NCC(O)c3ccc(C(F)(F)F)cc3)n2)c1 (centres undefined)
3. COc1ccc(Oc2cnc(N)nc2N)c(C(C)C)c1
4. CN1CCCN(Cc2ccc(-c3ccc(NC(=O)c4cccc(Cl)c4)cc3)cc2)CC1
5. CCNc1cc(C(=O)N[C@@H](Cc2ccccc2)[C@H](O)CNC(C)Cc2cccc(Cl)c2)cc(N2CCCCS2(=O)=O)c1 (some centres undefined)

[-1.17, 8.55, 5.88, -1.66, 2.5]

Please report inhibition for every entry that follows.
1. Cc1cc(C)cc(-n2c(C)cc(/C=C3\SC(=Nc4ccc(Cl)cc4)NC3=O)c2C)c1
2. O=C(Nc1cccc(C(F)(F)F)c1)NC1CCN(c2ccnc3ccccc23)C1 (centres undefined)
3. COC1(C)Oc2ccc3cccc([N+](=O)[O-])c3c2C1=O (centres undefined)
4. COc1ccc(NC(=O)NC2CCN(CCCCCNC(=O)/C=C/c3ccc(Cl)c(Cl)c3)C2)c(OC)c1 (centres undefined)
5. Cc1cc(NC(=O)c2ccc(-c3ccccc3)cc2)no1

1: 7.1; 2: -0.4; 3: -0.47; 4: -1.48; 5: 3.79

Please report inhibition for every entry that follows.
1. Cc1cccc2nc(-c3ccc(-c4ccc(C(=O)NCCc5cn(C)cn5)cc4)s3)[nH]c12
2. CC(=O)c1ccc(N2CCN(CCC3(c4ccc(Cl)c(Cl)c4)COCN(C(=O)c4ccccc4)C3)CC2)cc1 (centres undefined)
3. CCC(ON1C(N)=NC(N)=NC1(C)C)c1ccccc1 (centres undefined)
4. CNC(=O)C1Cc2c([nH]c3cc(Br)ccc23)C2(CCN(CCc3ccccc3)CC2)N1 (centres undefined)
5. Fc1cc(Cl)ccc1Nc1ccnc2cc(-c3ccc(CN4CCSCC4)o3)ccc12
6. COc1ccc2nccc([C@@H](O)CN3CCC(NCc4nc5ccccc5s4)CC3)c2c1
7. CC1CCCCN1CCCNc1ncc2c(-c3ccc(NC(=O)Nc4cc(C(F)(F)F)ccc4F)c(F)c3)nn(C)c2n1 (centres undefined)
8. COc1ccc(S(=O)(=O)Nc2cc(Br)cc3c2OCCC3)cc1N1CCN(C(=O)C(Cl)(Cl)Cl)CC1

5.34
1.18
-0.45
0.63
3.56
6.41
-0.99
-1.14

Please report inhibition for every entry that follows.
1. COc1ccc(C(=O)N2CCC3(CC2)C(=O)N(CC(=O)NC2CCCCC2)CN3c2ccccc2)c(OC)c1
2. C=Cc1ccc(-c2c(C)[nH]c(C)c(Br)c2=O)cc1
3. O=C(c1ccc(-c2ccccn2)s1)N1CCc2cc3nccc(N4CCN5CCC[C@H]5C4)c3cc21
4. O=C(NC(Nc1ccc([N+](=O)[O-])cc1)C(Cl)(Cl)Cl)c1cccc(Cl)c1 (centres undefined)
5. Oc1c(Br)cc2oc3c(c2c1CNCc1ccccc1)CCCC3
6. Cc1cccc(C)c1N1CCN(C2CCC(NC(=O)c3cc4ccccc4[nH]3)CC2)CC1 (centres undefined)
7. COc1ccccc1N1CCN(c2cccc3c2nc(-c2cncc(C#N)c2)n3CCNCc2ccccc2)CC1
8. CC(C)NCc1ccc(OCc2cccc(COc3ccc(CNC(C)C)cc3I)c2)c(I)c1

1. 3.6
2. 1.38
3. 8.34
4. 3.95
5. -0.92
6. -0.69
7. 7.58
8. 109

Please report inhibition for every entry that follows.
1. O=C(CCc1nc2c(cnn2-c2ccccc2)c(=O)[nH]1)NC1CCSc2ccccc21 (centres undefined)
2. Cc1sc(N2CCCCC2)nc1C(=O)Nc1ccc(F)cc1C(F)(F)F
3. O=C(Nc1cccc(CN2CCCN(Cc3ccc(O)cc3)CC2)c1)c1cc2ccccc2s1
4. O=C(/C=C/c1ccccc1)N1CCOC(CCN2CCC(c3ccccc3)CC2)(c2ccc(Cl)c(Cl)c2)C1 (centres undefined)

[1.79, -1.54, 1.71, 7.51]

Please report inhibition for every entry that follows.
1. O=C(N/C=N/c1cc([N+](=O)[O-])c(-c2cccnc2)n1-c1ccc(O)cc1)c1ccccc1
2. COc1nc(Nc2cccc(C)c2)nc(OC)n1
3. CSc1ccc2ccccc2c1CCNCCCCNCCc1c(SC)ccc2ccccc12
4. Brc1cc(Br)c2c(c1)C(NCCCNC1CCNc3c(Br)cc(Br)cc31)CCN2 (centres undefined)
5. O=C(CCCCCNC(=O)c1ccc(O)c(-c2ccc(Cl)c(Cl)c2)c1)NCc1cccc(C(F)(F)F)c1

1. -1.73
2. 0.66
3. 96.1
4. 0.89
5. -1.74
